testName: recombinant barcode read abundance after kanamycin selection (control-corrected) (log10(CPM+1)); higher = more efficient recombination; sequences stand for … in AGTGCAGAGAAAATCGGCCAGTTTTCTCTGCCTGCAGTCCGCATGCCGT…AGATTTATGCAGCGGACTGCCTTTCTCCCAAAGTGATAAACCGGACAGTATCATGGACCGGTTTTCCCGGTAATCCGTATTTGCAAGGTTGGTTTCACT; site = the 11-nt target
Decision: recombinant barcode read abundance (log10) compared against 0.2; not below it gives class 1, below it gives class 0.

Problem: Given TGGGGCCCTTGGGTTCTAACCTGTTGCCG (site GCAATTACTAA) , state whether its recombinant barcode read abundance (log10) is at least 0.2.
Solution: class 0

Problem: Given ATAACTACTTGGGTTCTAACCTGTTGCTT (site TACCTACCTTC) , state whether its recombinant barcode read abundance (log10) is at least 0.2.
Solution: class 0

Problem: Given ACAGGTGCTTGGGTTCTAACCTGTTGCCT (site ACAGGTGCTAG) , state whether its recombinant barcode read abundance (log10) is at least 0.2.
Solution: class 1

Problem: Given ATGCCAACTTGGGTTCTAACCTGTTGCCT (site ATGCCCACTAG) , state whether its recombinant barcode read abundance (log10) is at least 0.2.
Solution: class 0

Problem: Given CATTATCCTTGGGTTCTAACCTGTTGCGT (site CATTGTCCTAC) , state whether its recombinant barcode read abundance (log10) is at least 0.2.
Solution: class 0

Problem: Given GTGTACCCTTGGGTTCTAACCTGTTGCGC (site GTGTACCCTGC) , state whether its recombinant barcode read abundance (log10) is at least 0.2.
Solution: class 1

Problem: Given GGTCTGCCTTGGGTTCTAACCTGTTGCCT (site TGTCTGCCTAG) , state whether its recombinant barcode read abundance (log10) is at least 0.2.
Solution: class 1

Problem: Given GAAGAGCCTTGGGTTCTAACCTGTTGCCT (site GAAGCGCCTAG) , state whether its recombinant barcode read abundance (log10) is at least 0.2.
Solution: class 0

Problem: Given CGTCCTGCTTGGGTTCTAACCTGTTGCCT (site CGTCCTGCTAG) , state whether its recombinant barcode read abundance (log10) is at least 0.2.
Solution: class 1

Problem: Given ACTTCTGCTTGGGTTCTAACCTGTTGCCT (site ACTTCTGCTAG) , state whether its recombinant barcode read abundance (log10) is at least 0.2.
Solution: class 1

Problem: Given ACTTCTGCTTGGGTTCTAACCTGTTGCCT (site ACTTCACCTAG) , state whether its recombinant barcode read abundance (log10) is at least 0.2.
Solution: class 0

Problem: Given GAGCCGGCTTGGGTTCTAACCTGTTGCTT (site GAGTCGGCTAA) , state whether its recombinant barcode read abundance (log10) is at least 0.2.
Solution: class 1

Problem: Given GAGGCTCCTTGGGTTCTAACCTGTTGCCC (site GAGGCTCCTGG) , state whether its recombinant barcode read abundance (log10) is at least 0.2.
Solution: class 1

Problem: Given GGCTGATCTTGGGTTCTAACCTGTTGCCT (site AGCTGATCTAG) , state whether its recombinant barcode read abundance (log10) is at least 0.2.
Solution: class 0

###

testName: recombinant UMI read abundance after kanamycin selection (control-corrected) (log10(CPM+1)); higher = more efficient recombination; extreme values may be limits of the assay; sequences stand for … in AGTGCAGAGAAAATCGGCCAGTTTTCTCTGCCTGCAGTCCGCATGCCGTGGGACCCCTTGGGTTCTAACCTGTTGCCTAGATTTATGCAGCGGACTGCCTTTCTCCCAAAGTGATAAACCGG…AGGTTGGTTTCACT; site = the 11-nt donor
Decision: recombinant UMI read abundance (log10) compared against 0.04; not below it gives Y, below it gives N.

Problem: Given GACACATCATGGACCGGTTTTCCCGGTAATCCGTATTTGGT (site GACACATCTAC) , state whether its recombinant UMI read abundance (log10) is at least 0.04.
Solution: Y

Problem: Given ATAAGGGCATGGACCGGTTTTCCCGGTAATCCGTATTTGAC (site ATAAGGTCTGT) , state whether its recombinant UMI read abundance (log10) is at least 0.04.
Solution: Y

Problem: Given ATAAGGTCATGGACCGGTTTTCCCGGTAATCCGTATTTGAC (site ATAAGGGCTGT) , state whether its recombinant UMI read abundance (log10) is at least 0.04.
Solution: Y

Problem: Given GACAAACCATGGACCGGTTTTCCCGGTAATCCGTATTTGAT (site GACAAACCTAC) , state whether its recombinant UMI read abundance (log10) is at least 0.04.
Solution: N

Problem: Given AGGGTCCCATGGACCGGTTTTCCCGGTAATCCGTATTTGTG (site AGGTTCCCTCA) , state whether its recombinant UMI read abundance (log10) is at least 0.04.
Solution: N

Problem: Given TAGTCTTCATGGACCGGTTTTCCCGGTAATCCGTATTTGGT (site TAGTCTTCTAC) , state whether its recombinant UMI read abundance (log10) is at least 0.04.
Solution: Y

Problem: Given GTGAGTACATGGACCGGTTTTCCCGGTAATCCGTATTTGAG (site GTGAGTACTCT) , state whether its recombinant UMI read abundance (log10) is at least 0.04.
Solution: Y

Problem: Given TAATTAGCATGGACCGGTTTTCCCGGTAATCCGTATTTGGG (site TAATTAGCTCC) , state whether its recombinant UMI read abundance (log10) is at least 0.04.
Solution: N

Problem: Given GCATACTCATGGACCGGTTTTCCCGGTAATCCGTATTTGCA (site TCATACTCTTG) , state whether its recombinant UMI read abundance (log10) is at least 0.04.
Solution: Y

Problem: Given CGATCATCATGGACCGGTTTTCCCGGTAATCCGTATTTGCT (site CCGTCATCTAG) , state whether its recombinant UMI read abundance (log10) is at least 0.04.
Solution: Y

Problem: Given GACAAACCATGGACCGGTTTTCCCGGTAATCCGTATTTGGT (site GAGAAACCTAC) , state whether its recombinant UMI read abundance (log10) is at least 0.04.
Solution: N

Problem: Given AGGTAGACATGGACCGGTTTTCCCGGTAATCCGTATTTGAA (site AGGTAGACTTT) , state whether its recombinant UMI read abundance (log10) is at least 0.04.
Solution: Y

Problem: Given AGAAAGGCATGGACCGGTTTTCCCGGTAATCCGTATTTGCA (site AGAAAGGCTGG) , state whether its recombinant UMI read abundance (log10) is at least 0.04.
Solution: N

Problem: Given ACTAGTGCATGGACCGGTTTTCCCGGTAATCCGTATTTGGG (site ACTAGTGCTTC) , state whether its recombinant UMI read abundance (log10) is at least 0.04.
Solution: N

Problem: Given AGGTCATCATGGACCGGTTTTCCCGGTAATCCGTATTTGCT (site CGATCATCTAG) , state whether its recombinant UMI read abundance (log10) is at least 0.04.
Solution: N

Problem: Given CCGTTACCATGGACCGGTTTTCCCGGTAATCCGTATTTGTG (site CCGTTATCTCA) , state whether its recombinant UMI read abundance (log10) is at least 0.04.
Solution: N

Problem: Given CACGGCTCATGGACCGGTTTTCCCGGTAATCCGTATTTGTT (site CACGGCTCTAA) , state whether its recombinant UMI read abundance (log10) is at least 0.04.
Solution: Y

Problem: Given CAGTCGACATGGACCGGTTTTCCCGGTAATCCGTATTTGGC (site CAGTCGACTCC) , state whether its recombinant UMI read abundance (log10) is at least 0.04.
Solution: N

Problem: Given GGAGGACCATGGACCGGTTTTCCCGGTAATCCGTATTTGGG (site CGAGGACCTCC) , state whether its recombinant UMI read abundance (log10) is at least 0.04.
Solution: N

Problem: Given TGTTTAGCATGGACCGGTTTTCCCGGTAATCCGTATTTGGG (site TGTTTAGCTCC) , state whether its recombinant UMI read abundance (log10) is at least 0.04.
Solution: N

Problem: Given ATTGACACATGGACCGGTTTTCCCGGTAATCCGTATTTGGT (site ATTGAAACTAC) , state whether its recombinant UMI read abundance (log10) is at least 0.04.
Solution: Y

Problem: Given TTCAACCCATGGACCGGTTTTCCCGGTAATCCGTATTTGGA (site TTCAACCCTTC) , state whether its recombinant UMI read abundance (log10) is at least 0.04.
Solution: N

Problem: Given TCCAACGCATGGACCGGTTTTCCCGGTAATCCGTATTTGCG (site TCCATCGCTCG) , state whether its recombinant UMI read abundance (log10) is at least 0.04.
Solution: N

Problem: Given GCTAGCCCATGGACCGGTTTTCCCGGTAATCCGTATTTGAT (site GCTCGCCCTAT) , state whether its recombinant UMI read abundance (log10) is at least 0.04.
Solution: N

Problem: Given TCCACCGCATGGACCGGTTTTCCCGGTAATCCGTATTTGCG (site TCTACCGCTCG) , state whether its recombinant UMI read abundance (log10) is at least 0.04.
Solution: N

Problem: Given ACCTAGCCATGGACCGGTTTTCCCGGTAATCCGTATTTGGG (site ACCTAGCCTCC) , state whether its recombinant UMI read abundance (log10) is at least 0.04.
Solution: N

Problem: Given TTTAATACATGGACCGGTTTTCCCGGTAATCCGTATTTGAA (site TTTAATACTTT) , state whether its recombinant UMI read abundance (log10) is at least 0.04.
Solution: N

Problem: Given CCGCACACATGGACCGGTTTTCCCGGTAATCCGTATTTGTA (site CCCCACACTTA) , state whether its recombinant UMI read abundance (log10) is at least 0.04.
Solution: N

Problem: Given ATCTAGACATGGACCGGTTTTCCCGGTAATCCGTATTTGGG (site ACCTAGACTCC) , state whether its recombinant UMI read abundance (log10) is at least 0.04.
Solution: N

Problem: Given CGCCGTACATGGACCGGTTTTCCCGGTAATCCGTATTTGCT (site GGCCGTACTAG) , state whether its recombinant UMI read abundance (log10) is at least 0.04.
Solution: N
